# experiment description: reversal of MRP1-mediated doxorubicin resistance, pilot screen, H69AR cells, doxorubicin co-treatment (AID 601)
# condition context: H69AR cells + 2 uM doxorubicin, CellTiter-Glo, 72 h; measured here: viability with 2 uM doxorubicin; at 10 µM; stronger effect = lower value
Entries annotated with measured viability
Express your answer in %, writing the number without its unit.

Record excerpt, results attached:
Cc1ccc(C)c(-c2nc3ccc(N)cc3[nH]2)c1 :: 68.3
COc1cc(/C=N/n2c(C)nnc2C)cc(OC)c1OC :: 83.6
O=S(=O)(NCC1CCCO1)c1ccc2c(c1)OCCO2 (stereo not given) :: 96.8
CC(NC(=O)OCc1ccccc1)C(=O)N1CC(O)CC1C(=O)O (stereo not given) :: 81

--- query ---
query: Recall and state the measured viability for O=C(O)c1ccccc1Nc1cccc(C(F)(F)F)c1 .
result: 77.3

* * *

# experiment description: growth suppression of yeast trafficking mutant, preliminary HTS, modulators of trafficking downstream of Golgi apparatus project, 1536-format plate, OD 615 nm (AID 637)
# condition context: yeast transport mutant growth, absorbance 615 nm, 18 h; stronger effect = higher value
Property: inhibition; scope: individual compounds
Record the value in %, omitting the unit from your answer.

CCOC(=O)c1c2n(c3ccc(O)cc13)CCCCC2 :: 0
c1ccc(-c2nc3ccccc3nc2-c2ccccn2)nc1 :: 0.98
Cc1cc(=O)[nH]c(SCc2nc3ncccn3c2Br)n1 :: -3.44
COCCN(CCOC)C(=O)c1sc2nc(-c3ccccc3)cn2c1C :: -5

query: Specify reported inhibition for the compound shown: COc1ccc(-c2cc(N3CCCC3)n3ncnc3n2)cc1
result: -2.46

* * *

# experiment description: growth inhibitors of H69AR lung tumor, primary screen, human, duplicate replicates (AID 580);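 further: 100% = mean luminescence of untreated wells and 0% = no signal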
# condition context: H69AR lung tumor cells viability, ATP luminescence, 72 h; at 10 µM; stronger effect = lower value
Active and inactive are the calls of the source.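 The calls were made as follows: active = viability at or under a set limit in both replicates, limit being median viability minus 3 SD (cut at about 48% in these data, passing the limit was not always enough); inconclusive = at or under the limit in just one replicate; inactive = at or above the limit in both replicates.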
viability values for the compounds below.

C=CCSc1nnc2n(-c3ccccc3OC)c(=O)c3c4c(sc3n12)CCC4 :: 89.1% (inactive)
CCn1cc(C2Nc3ccccc3C(=O)N2O)c(C)n1 (stereo not drawn) :: 90% (inactive)

// next item, viability requested
query: Please look at this compound and report its viability: CC(=O)Nc1ccc(N2CCN(Cc3ccccc3F)CC2)cc1
result: 92.5% (inactive)

* * *

# experiment description: SK-BR-3 cell growth inhibitors, pilot screen, 24 h, human (AID 572);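 further: compound exposure lasted between 18 and 24 h rather than exactly 24 h; 100% = carrier-treated control wells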
# condition context: SK-BR-3 viability, CellTiter-Glo luminescence, at 10 µM, stronger effect = lower value
quantity kind: viability (%)
API: value field is a number in %; no unit string.

Reference set (3 entries):
CCn1c(Cc2ccccc2)nnc1SCC(=O)Nc1cc(C)on1 :: 109
O=S(=O)(c1ccc2c(c1)OCCO2)N1CCN(Cc2ccc3c(c2)OCO3)CC1 :: 112
CC1=C(C(=O)Nc2ccccc2C)C2(CCCC2)C(C(N)=O)C(=O)N1 (centres undefined) :: 114

Let's switch to this molecule now.
query: Name the recorded viability of the item Cc1cc(NC(=O)CSc2nc(C3CC3)nc3sc4c(c23)CCC(C)C4)no1 (centres undefined) in your answer.
result: 90

* * *

# experiment description: reversal of MRP1-mediated doxorubicin resistance, pilot screen, H69AR cells, doxorubicin co-treatment (AID 601)
# condition context: H69AR cells + 2 uM doxorubicin, CellTiter-Glo, 72 h; measured here: viability with 2 uM doxorubicin; at 10 µM; stronger effect = lower value
just bin them by viability: bucket 1 = under 80%, bucket 2 = from 80% up to 90%, bucket 3 = 90% and over

query: Sort into band: O=C(CC1CCCCC1)NCc1ccccn1
result: bucket 2

query: Band for CCOc1ccc2nc(SCC(=O)Nc3ncccn3)[nH]c2c1 ?
result: bucket 2

query: Dear colleague, I would appreciate it if you could identify the bin for COc1ccccc1-n1c(=O)c2c3c(sc2n2c(SC(C)C)nnc12)CCC3 and reply at your convenience.
result: bucket 1

query: Please indicate the class for CC(C)N(O)C(=O)NC(C)(C)C based on its viability.
result: bucket 3

query: Which class holds O=C(c1ccc(F)cc1)C1CCN(CCn2c(=O)[nH]c3ccccc3c2=O)CC1 ?
result: bucket 3

query: Into which category would you place Cc1ccccc1-n1nnc2c(=O)oc3ccccc3c21 ?
result: bucket 2

query: Using the reported viability, which band applies to CCOC(=O)C1=C(C)Nc2nc(SCC(=O)OC)nn2C1c1cc(F)cc(F)c1 (stereo not given) ?
result: bucket 2

query: Input CC(=O)c1ccc(NC(=O)CCc2c(C)nc3ncnn3c2C)cc1 ; output its category
result: bucket 2

query: Please report the category associated with Cc1cc(Nc2ccccc2)n(-c2ccccc2)n1 , nothing else.
result: bucket 3

query: Which band does CN1CCC(=C2c3ccccc3C=Cc3ccccc32)CC1 fall in?
result: bucket 1

query: In plain terms, what class is CCOC(=O)c1ccc(Oc2nc(NC)nc(OC)n2)cc1 ?
result: bucket 3

query: Please report the category associated with Cc1cc(=O)n(CCO)c(O)c1C#N , nothing else.
result: bucket 3

query: Which class is correct for the following molecule? CN(Cc1ccccc1)Cc1nc2c([nH]1)c(=O)[nH]c(=O)n2C
result: bucket 2

query: Which class holds CSc1nc2ccc(Nc3nc(N4CCOCC4)nc(N4CCOCC4)n3)cc2s1 ?
result: bucket 1

query: Hi, small favor: classify CCCc1ccc(Oc2cn[nH]c2-c2ccc(O)c(C)c2O)cc1 by its viability when you get a moment.
result: bucket 1

query: # classify by viability band: O=C(c1cccc(C(=O)N2CCN(c3ccc(F)cc3)CC2)c1)N1CCN(c2ccc(F)cc2)CC1
result: bucket 1

query: Kindly identify the class of O=C1c2ccccc2C(=O)N1c1cccc(-c2nc3ccccc3o2)c1 .
result: bucket 3

query: Class? Entry: Cc1cccc(C(=O)O)c1NC(=O)c1ccc(F)cc1
result: bucket 3
